- tested target: T1, human PCSK9 (human, UniProt Q8NBP7 31-692, limits assumed)
- T1 construct: It carried an AlexaFluor647 label in the TR-FRET assay only; also called hPCSK9; wild type human PCSK9
- T1 sequence (Q8NBP7 31-692 limits assumed): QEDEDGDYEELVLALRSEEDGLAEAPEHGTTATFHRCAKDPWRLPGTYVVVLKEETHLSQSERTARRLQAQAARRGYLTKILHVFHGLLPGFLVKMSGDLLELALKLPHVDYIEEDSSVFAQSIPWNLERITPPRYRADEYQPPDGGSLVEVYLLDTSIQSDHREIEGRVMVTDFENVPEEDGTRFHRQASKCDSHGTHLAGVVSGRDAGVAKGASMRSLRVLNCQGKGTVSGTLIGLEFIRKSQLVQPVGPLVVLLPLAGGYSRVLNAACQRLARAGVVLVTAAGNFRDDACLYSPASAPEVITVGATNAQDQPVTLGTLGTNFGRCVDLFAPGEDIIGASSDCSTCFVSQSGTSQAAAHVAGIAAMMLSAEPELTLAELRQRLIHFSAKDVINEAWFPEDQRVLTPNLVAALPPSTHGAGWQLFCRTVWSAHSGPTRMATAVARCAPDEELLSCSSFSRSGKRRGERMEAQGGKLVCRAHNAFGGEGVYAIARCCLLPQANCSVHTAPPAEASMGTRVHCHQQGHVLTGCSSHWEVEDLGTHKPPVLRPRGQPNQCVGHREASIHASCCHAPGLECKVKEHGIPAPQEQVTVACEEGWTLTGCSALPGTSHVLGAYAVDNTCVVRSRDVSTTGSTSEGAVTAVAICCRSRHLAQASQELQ
- test method notes: SPR (Biacore); IgG captured on anti-human IgG, PCSK9 injected
Kd listing for selected binders.

Recorded results for 3 binders are shown here.
binder	Kd
AX188 IgG2 (antibody, V domains shown, IgG2) VH: EVQLLESGGGLVQPGGSLRLSCKASGYTFSSYWMHWVRQAPGKGLEWIGRIDPYNGGTKYNEKFKGKATISRDNSKNTLYLQMNSLRAEDTAVYYCARYGYYLGSYAMDYWGQGTLVTVSS VL: DIQMTQSPSSLSASVGDRVTITCRASQSVSRYLAWYQQKPGKAPKLLIYAASSLQSGVPSRFSGSGSGTDFTLTISSLQPEDFATYYCEAYDYSSGPWVFGGGTKVEIKR	0.873 nM
AX422 IgG2 (antibody, V domains shown, also called AX422 (55N to S)) VH: EVQLLESGGGLVQPGGSLRLSCKASGYTFSSYWMHWVRQAPGKGLEWIGRIDPYSGGTKYNEKFKGKATISRDNSKNTLYLQMNSLRAEDTAVYYCARYGYYLGSYAMDYWGQGTLVTVSS VL: DIQMTQSPSSLSASVGDRVTITCRASQDVSRYLTWYQQKPGKAPKLLIYAASSLQSGVPSRFSGSGSGTDFTLTISSLQPEDFATYYCQAYDYSLSGYVFGGGTKVEIKR	2.12 nM
AX424 IgG2 (antibody, V domains shown, also called AX424 (55N to T)) VH: EVQLLESGGGLVQPGGSLRLSCKASGYTFSSYWMHWVRQAPGKGLEWIGRIDPYTGGTKYNEKFKGKATISRDNSKNTLYLQMNSLRAEDTAVYYCARYGYYLGSYAMDYWGQGTLVTVSS VL: DIQMTQSPSSLSASVGDRVTITCRASQDVSRYLTWYQQKPGKAPKLLIYAASSLQSGVPSRFSGSGSGTDFTLTISSLQPEDFATYYCQAYDYSLSGYVFGGGTKVEIKR	2.16 nM

Below: the item to evaluate.
Q) Please look at this binder and report its Kd: AX1DG IgG2 (antibody, V domains shown, IgG2; also called AXIDG) VH: EVQLLESGGGLVQPGGSLRLSCKASGFTFTSYYMHWVRQAPGKGLEWIGRINPDSGSTKYNEKFKGRATISRDNSKNTLYLQMNSLRAEDTAVYYCARGGRLSWDFDVWGQGTLVTVSS VL: DIQMTQSPSSLSASVGDRVTITCRASQDISRYLAWYQQKPGKAPKLLIYAASSLQSGVPSRFSGSGSGTDFTLTISSLQPEDFATYYCAAYDYSLGGYVFGGGTKVEIK
A) 4.61 nM
